Provenance of the data: paper PMC9800556

tested-system: T7 DNA polymerase (T7 DNA pol; T7 gp5 + E. coli thioredoxin) (Escherichia phage T7, UniProt P00581)
Construct: wild-type exo-proficient (x+) gp5 catalytic subunit, purified as previously described, reconstituted with at least twofold molar excess of E. coli thioredoxin; with Thioredoxin 1
Sequence (P00581 whole entry): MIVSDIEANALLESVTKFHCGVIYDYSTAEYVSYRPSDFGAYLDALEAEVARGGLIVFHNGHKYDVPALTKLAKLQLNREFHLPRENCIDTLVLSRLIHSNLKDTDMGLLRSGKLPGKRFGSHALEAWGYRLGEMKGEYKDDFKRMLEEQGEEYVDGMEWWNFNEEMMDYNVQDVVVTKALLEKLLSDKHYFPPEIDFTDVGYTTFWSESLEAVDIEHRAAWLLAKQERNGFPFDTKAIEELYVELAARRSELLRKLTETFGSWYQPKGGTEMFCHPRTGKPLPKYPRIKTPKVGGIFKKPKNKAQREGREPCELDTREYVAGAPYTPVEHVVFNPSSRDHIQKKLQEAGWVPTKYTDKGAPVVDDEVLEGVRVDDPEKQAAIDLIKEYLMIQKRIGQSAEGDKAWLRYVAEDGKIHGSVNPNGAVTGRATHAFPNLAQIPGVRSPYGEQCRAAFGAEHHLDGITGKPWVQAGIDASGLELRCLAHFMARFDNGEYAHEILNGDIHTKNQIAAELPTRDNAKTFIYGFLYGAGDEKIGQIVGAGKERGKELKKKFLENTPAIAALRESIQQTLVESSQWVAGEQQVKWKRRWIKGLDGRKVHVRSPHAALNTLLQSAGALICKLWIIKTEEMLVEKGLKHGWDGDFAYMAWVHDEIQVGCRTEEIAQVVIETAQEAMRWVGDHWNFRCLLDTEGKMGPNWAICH
Sequence (P0AA25 2-109 partner): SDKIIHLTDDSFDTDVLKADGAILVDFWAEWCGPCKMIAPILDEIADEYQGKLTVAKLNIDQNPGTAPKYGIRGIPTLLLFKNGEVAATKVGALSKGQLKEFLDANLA
experimental-details: rapid-quench ssDNA excision, denaturing PAGE, global fit (KinTek Explorer)
run-conditions: read-out: Best fit
measurement-name: pKi
Units for pKi: none; it is -log10 of a concentration expressed in mol/L.

[ask] Item under review: "Nc1ccn([C@H]2C[C@H](O)[C@@H](COP(=O)(O)O)O2)c(=O)n1" . Reported pKi?
[reply] 2.25
